Multiple publications report pIC50 for Amine oxidase [flavin-containing] B (Rattus norvegicus, UniProt P19643); what follows is a combined list.
Answers are plain numbers, as −log10 of the molar value.

Worked cases, pIC50 given:
> print(dat)
                                 smiles.str  measurement.type  readout.value
1    COc1ccc(-c2csc(NC(=O)CCN3CCCCC3)n2)cc1             pIC50           3.50
2  COc1cc(/C=C/C(=O)c2c(O)cccc2OC)c(OC)cc1Br             pIC50           5.21
3   COc1ccc(O)c(C(=O)/C=C/c2cccc(OC)c2OC)c1             pIC50           5.17
4   COc1ccc(OC)c(/C=C2\Oc3cccc(OC)c3C2=O)c1             pIC50           4.75
5                CCN(CC)CCC(=O)c1sc(NC)nc1C             pIC50           4.08
6  COc1ccc2c(c1)C(=O)/C(=C/c1cccc(OC)c1OC)O2             pIC50           4.94
7                C#CCN(C)Cc1ccc(O)c2ncccc12             pIC50           7.43
8        Cc1nc(-c2ccccc2)sc1C(=O)CCN1CCCCC1             pIC50           4.37

For every record below, what is its pIC50?
1. CCN(CC)CCC(=O)c1sc(-c2ccc(C)cc2)nc1C
2. COc1ccc(O)c(C(=O)/C=C/c2cc(OC)c(Br)cc2OC)c1
3. COc1cc(/C=C2\Oc3cccc(OC)c3C2=O)c(OC)cc1Br
4. O=C(CN1CCCCC1)Nc1nc(-c2ccccc2)cs1

Output line:
[5.12, 5.55, 4.58, 4.04]
